B1: Histone-lysine N-methyltransferase SETD2, residues 2382 to 2430; numbered along this chain, Q9BYW2 (parent)
chain: SPPKPKTIVLPPNWKTARDPEGKIYYYHVITRQTQWDPPTWESPGDDAS

# Variants of: B1
# procedure.summary: abundance fitness (aPCA) (normalised: wild type 0, dead -1); higher = more abundant; growth selection in yeast, the domain comes from the species named
# setup.conditions: Homo sapiens
# binarize abundance fitness: threshold -0.4 inclusive, high side met, low side not met

Hi team, for A17Y , is the recorded abundance fitness at or above -0.4?
met

Hi team, for T34Q , is the recorded abundance fitness at or above -0.4?
met

Hi team, for Y26Q , is the recorded abundance fitness at or above -0.4?
not met

Hi team, for K6E , is the recorded abundance fitness at or above -0.4?
met

Hi team, for T40Y , is the recorded abundance fitness at or above -0.4?
met

Hi team, for E42P , is the recorded abundance fitness at or above -0.4?
met

Hi team, for P20Y , is the recorded abundance fitness at or above -0.4?
met

Hi team, for W14M , is the recorded abundance fitness at or above -0.4?
not met

Hi team, for P3D , is the recorded abundance fitness at or above -0.4?
met

Hi team, for I30K , is the recorded abundance fitness at or above -0.4?
met

Hi team, for T34D , is the recorded abundance fitness at or above -0.4?
not met

Hi team, for P38D , is the recorded abundance fitness at or above -0.4?
not met

Hi team, for P44T , is the recorded abundance fitness at or above -0.4?
met

Hi team, for A17E , is the recorded abundance fitness at or above -0.4?
met

Hi team, for S43P , is the recorded abundance fitness at or above -0.4?
met

Hi team, for R32G , is the recorded abundance fitness at or above -0.4?
met

Hi team, for W14E , is the recorded abundance fitness at or above -0.4?
not met

Hi team, for T16R , is the recorded abundance fitness at or above -0.4?
met

Hi team, for Q35F , is the recorded abundance fitness at or above -0.4?
not met

From: the Human Domainome abundance scans (Beltran et al. 2025)
